- method: RP, Agilent ZORBAX Eclipse Plus C18, 150 × 2.1 mm, 3.5 µm, 40 °C, 0.3 mL/min, estimated dead time 1.1 min; A: water + 0.1% formic acid; B: acetonitrile + 0.1% formic acid; gradient (min/%B) 0/2 1/2 2/20 16.5/98 22/98
- protocolConditions: stereoisomer not certain
reportedProperty: LC retention time (min)

Solved cases (5 shown):
O=C(c1ccccc1)c1ccc(O)cc1O; 11
Cc1c(C(C)C)c(=O)n(-c2ccccc2)n1C; 9.54
Cc1ccc(C(C)NC(=O)C(NC(=O)OC(C)C)C(C)C)cc1 (configuration not stated); 11.9
N#CSCSc1nc2ccccc2s1; 12.4
C#CC1(O)CCC2C3CCC4=CC(=O)CCC4(C)C3CCC21C (configuration not stated); 11.7

[1] Cn1cnc([N+](=O)[O-])c1Sc1ncnc2nc[nH]c12
[2] Cc1ccccc1NC(=O)Nc1ccccc1C
[3] CCCCCCCC[N+](CCCCCCCC)(CCCCCCCC)CCCCCCCC
Rank order required: LC retention time, descending. State the ranking by listing the labels in the requested order.
3, 2, 1
(3: 16.2 min, 2: 11.1 min, 1: 5.37 min)

====

- method: RP, Agilent ZORBAX Eclipse Plus C18, 150 × 2.1 mm, 3.5 µm, 40 °C, 0.3 mL/min, estimated dead time 1.1 min; A: water + 0.1% formic acid; B: acetonitrile + 0.1% formic acid; gradient (min/%B) 0/2 1/2 2/20 16.5/98 22/98
- protocolConditions: stereoisomer not certain
reportedProperty: LC retention time (min)
Give the value in min but do not write min after it.

Please review the entries below; each comes with its answer.
CNC(=O)N(C)c1nc2ccccc2s1; 9.78
CCCCCCCCCCCCCC(=O)OCC(O)COP(=O)([O-])OCC[N+](C)(C)C (stereo not given); 12.7
CC(C)(C)P(C(C)(C)C)C(C)(C)C; 5.22
c1ccc2sc(C3CCCNC3)nc2c1 (stereo not given); 5.62

Record `O=[P+](c1ccccc1)c1ccccc1` , field LC retention time: 8.03

====

- method: RP, Agilent ZORBAX Eclipse Plus C18, 150 × 2.1 mm, 3.5 µm, 40 °C, 0.3 mL/min, estimated dead time 1.1 min; A: water + 0.1% formic acid; B: acetonitrile + 0.1% formic acid; gradient (min/%B) 0/2 1/2 2/20 16.5/98 22/98
- protocolConditions: stereoisomer not certain
reportedProperty: LC retention time (min)

Examples from the recorded data:
C[P+](c1ccccc1)(c1ccccc1)c1ccccc1; 7.19
CCCCCCCCCCCC[N+](C)(C)CCCCCCCCCCCC; 15.3
CCOc1ccccc1NC(=O)C(=O)Nc1ccccc1CC; 15.4

[A] COC(=O)c1cccc(O)c1
[B] CCOC(=O)Nc1cccc(N)c1C
[C] O=c1[nH]c(=O)c2cn[nH]c2[nH]1
[D] CCCCC(=O)N(Cc1ccc(-c2ccccc2-c2nn[nH]n2)cc1)C(C(=O)O)C(C)C (configuration not stated)
Parameters: sort_field (LC retention time), sort_dir (desc). Response field: labels, in requested order.
D, A, B, C

====

- method: RP, Agilent ZORBAX Eclipse Plus C18, 150 × 2.1 mm, 3.5 µm, 40 °C, 0.3 mL/min, estimated dead time 1.1 min; A: water + 0.1% formic acid; B: acetonitrile + 0.1% formic acid; gradient (min/%B) 0/2 1/2 2/20 16.5/98 22/98
- protocolConditions: stereoisomer not certain
reportedProperty: LC retention time (min)

Recorded LC retention time, per entry:
CC(C)(C(=O)O)c1ccc(C(=O)CCCN2CCC(OC(c3ccccc3)c3ccccc3)CC2)cc1; 10
Nc1ncnc2c1ncn2C1OC(CO)C(O)C1O (stereo unspecified); 3.2
COC12C(COC(N)=O)C3=C(C(=O)C(C)=C(N)C3=O)N1CC1NC12 (stereo unspecified); 5.59

[P] CN(Cc1cnc2nc(N)nc(N)c2n1)c1ccc(C(=O)NC(CCC(=O)O)C(=O)O)cc1 (stereo unspecified)
[Q] COc1cc(NS(=O)(=O)c2ccc(N)cc2)nc(OC)n1
[R] C=C(c1ccc(C(=O)O)cc1)c1cc2c(cc1C)C(C)(C)CCC2(C)C
Parameters: sort_field (LC retention time), sort_dir (desc). Labels, ranked as asked.
R, Q, P
(R: 17.6 min, Q: 8.09 min, P: 4.98 min)

The values you see were collected from the RepoRT retention time repository (doi:10.1016/j.chroma.2015.11.014).
